Target: T1, SARS-CoV2 Spike ecto foldon Trimer expressed with a C-terminal myc-myc-hexahistidine (SARS-CoV-2, UniProt P0DTC2 14-1213)
T1 construct: extracellular domain
Assay: SPR Biacore, mAb captured by anti-hFc, 25C

| binder | qualifying_sign | koff / s⁻¹ |
| --- | --- | --- |
| mAb14283 (antibody, V domains shown) VH: QVQLQESGPGLVKPSGTLSLTCDVSGGSISSNNWWSWVRQRPGKGLQWIGEIYHNENTNYNPSLKSRVIMSIDKSKNQFSLKLTSVTAADTAVYYCARGDVLDWFDPWGQGTLVTVSS VL: QSALTQPASVSGSPGQSTTISCTGTSSDVGGYNYVSWYQQYPGKAPKLMIYDVTNRPSGVSHRFSGSKSGNTASLTISGLQAEDEADYYCSSYTSSSTVIFGGGTKLTVLG | = | 8.66e-05 |
| mAb14232 (antibody, V domains shown) VH: QITLKESGPTLVKPTQTLTLTCTFSGFSLSASGVGVGWIRQPPGKALEWLALIYWDDDKRYSPSLKSRLTITKDTSKNQVVLTMTNMDPVDTATYYCAQHKVATIFDYWGQGTLVTVSS VL: QSALTQPPSASGSPGQSVTISCTATSSDVGNYNYVSWYQQHPGKAPKLMIYEVTKRPSGVPDRFSGSKSGNTASLTVSGLQAEDEADYYCSSYAGSWGVFGGGTKLTVLG | = | 0.000149 |
| mAb15166 (antibody, V domains shown) VH: EVQLVESGGGLVQPGGSLRLSCAASGFTVTSNYMSWVRQAPGKGLEWVSAIYSGESTYYADSVKGRFTISRDSSKNTLYLQMNSLRVEDTAVYYCASIHDYSNYVGGFDPWGQGTLVTVSS VL: QSALTQPASVSGSPGQSITISCTGPSSDFGSYNLVSWYQQHPGKAPKLMIYEGTKRPSGVSNRFSGSKSGNTASLTISGLQAEDEADYYCSSYAGSSTWVFGGGTKLTVLG | = | 0.000174 |
| mAb15150 (antibody, V domains shown) VH: EVQLVETGGGLIQPGGSLRLSCAAPGFIVSSNYMSWVRQAPGKGLEWVSLLYPGGSTYYADSVKGRFTISRDNSKNTLYLQMNSLRADDTAVYYCARVLPIVEDHFDYWGQGTLVTVSS VL: DIQLTQSPSFLSASVGDRVTITCRASQGMSSYLAWYQKKPGKAPKLLIYGATILQSGVPSRFSGSGSGTEFTLTISSLQPEDFATYYCQQLNSDPLYMYTFGQGTKLEIKR | ≤ | 1e-05 |
| mAb14256 (antibody, V domains shown) VH: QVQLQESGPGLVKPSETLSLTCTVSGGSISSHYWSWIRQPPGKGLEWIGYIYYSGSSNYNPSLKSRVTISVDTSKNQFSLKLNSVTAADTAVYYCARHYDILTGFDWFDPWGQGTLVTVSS VL: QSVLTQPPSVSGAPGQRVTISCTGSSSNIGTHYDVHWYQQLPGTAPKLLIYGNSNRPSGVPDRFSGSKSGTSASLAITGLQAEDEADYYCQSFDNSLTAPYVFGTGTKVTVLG | = | 0.000189 |

Sourced from patent US20260069689A1
